Sourced from PubChem BioAssay (NCI)

Answer each item with its documented TGI.
- Test system: UACC-62 melanoma
- protocol description: NCI tumour cell line growth inhibition, 48 h

// solved cases for TGI follow
compound="CC(=O)O[C@H]1CC[C@]2(C)C3C(=O)C[C@]4(C)[C@@H](C(C)CCC(=O)O)CC[C@@]4(C)[C@@H]3CC[C@H]2C1(C)C (stereo partly drawn)" reading="> 50 µM"
compound=CCOC(=O)c1csc(-c2cn(C)c3c2C(=O)C(OC)=CC3=O)n1 reading="> 59 µM"
compound=CC(=O)/C=C/c1ccc(N(CCO)Cc2ccc(C(C)(C)C)cc2)cc1 reading="176 µM"

Answer for every listed entry: what is its TGI? The entries follow.
1. CCC(=C(c1ccc(OCCN2CCCC2)cc1)c1ccc(OCCN2CCCC2)cc1)c1ccc(Cl)cc1
2. O=C(OCc1ccccc1)n1cccc1
3. COC1C(=O)N(SC)C1c1ccccc1Cl (stereo not drawn)
4. Nc1cc(N)c2nc(-c3ccccc3)c(NCc3ccc(Cl)c(Cl)c3)nc2c1
5. Cc1ccc(S(=O)(=O)NNC(=O)Nc2ccc([N+](=O)[O-])cc2)cc1

Response:
1. 1.16 µM
2. > 100 µM
3. > 100 µM
4. 30.8 µM
5. 98 µM

###

What TGI was measured for each of the following?
- Test system: NCI-H460 lung
- protocol description: NCI tumour cell line growth inhibition, 48 h

molecule=O=C(c1ccc(Nc2nccc(NCCCCNc3ccnc4cc(Cl)ccc34)n2)cc1)N1CCCCC1 tested_system="NCI-H460 lung" reading="2.98 µM"
molecule=Nc1ncnc2c1ncn2CCCCC(=O)O tested_system="NCI-H460 lung" reading="> 100 µM"
molecule=CC1(C)CN(CCNc2nccc(-c3c(-c4cccc(O)c4)nc4sccn34)n2)S(=O)(=O)N1 tested_system="NCI-H460 lung" reading="> 33.2 µM"
molecule=FC(F)(F)c1nc(Br)[nH]c1C(F)(F)F tested_system="NCI-H460 lung" reading="> 100 µM"
molecule=CCN(CC)CCCNc1cc(OC)c(OC)c2cccnc12 tested_system="NCI-H460 lung" reading="16.9 µM"

We now examine a further molecule.
For this molecule ( COC(=O)[C@H](C)N(C)C(=O)[C@H](C)N1[C@@H](c2ccccc2)COC1(C)C ), measured TGI is > 100 µM

###

- Tested on: IGROV1 ovarian
- protocol description: NCI tumour cell line growth inhibition, 48 h
measured endpoint: GI50

Solved cases below.
compound=COC(=O)[C@H](CCCCNC(=O)OCc1ccccc1)NC(=O)[C@@H](NC(=O)Nc1cc(C(F)(F)F)cc(C(F)(F)F)c1)C(C)C reading="> 10 µM"
compound=N/C(=N/S(=O)(=O)c1cc(C(=O)Nc2ccc(F)cc2)c(Cl)cc1SCc1ccccc1)Nc1ccccc1O reading="1.88 µM"
compound="CC(=O)O[C@H]1CC[C@]2(C)C3C(=O)C[C@]4(C)[C@@H](C(C)CCC(=O)O)CC[C@@]4(C)[C@@H]3CC[C@H]2C1(C)C (stereo partly drawn)" reading="34.7 µM"

Report GI50 for each item below.
1. Cc1ccc(/C(=C/C=C(C#N)C#N)Sc2nc3ccccc3s2)cc1
2. Cc1nn(-c2ccccc2)c2nc(C)n(-c3ccc(Br)cc3)c(=O)c12
3. CC(=N\O)/C(C)=N/O.CC(=N\O)/C(C)=N/O.[Fe].[NH2-].c1c[nH]cn1
4. CCCCC[C@H]1C/C=C2/C(=O)C(Cl)=C[C@@H]2C/C=C\CCCC(=O)O1
5. C[C@@H](Oc1cc(-c2cnn(C3CCNCC3)c2)cnc1N)c1c(Cl)cc(F)cc1Cl

Response:
1: 4.78 µM; 2: 0.584 µM; 3: > 100 µM; 4: 0.444 µM; 5: 3.31 µM

###

- Test system: SF-539 CNS
- protocol description: NCI tumour cell line growth inhibition, 48 h; in the data active means GI50 below about 0.43 µM; inactive means the rest
Mark one answer only. Choices: active, inactive

compound=Cc1cn2c(/C=C3\C(=O)N(C)c4ccc(Cl)cc43)c(C)nc2s1 class_label=inactive
compound=N/C(=N/S(=O)(=O)c1cc(C(=O)Nc2ccc(F)cc2)c(Cl)cc1SCc1ccccc1)Nc1ccccc1O class_label=inactive
compound=Cc1cc(OCc2nn(CN3CCN(C)CC3)c(=S)n2/N=C/c2ccc(F)cc2)ccc1Cl class_label=inactive
compound=CN(C)C/C=C/C(=O)Nc1cc2c(Nc3cccc(Cl)c3F)ncnc2cc1OCCOC(F)F class_label=inactive
compound=COc1ccc(-c2nnc(Nc3nc(O)c(C4=c5cc(Br)ccc5=NC4=O)s3)o2)cc1 class_label=inactive
compound=C1=C\CCCCN2CC[C@H]3[C@H](CCCC/C=C\CCCN4C[C@@H](CCCCC/1)C[C@@H]3C4)C2 class_label=inactive
compound=CCN(CC)CCCNc1cc(OC)c(OC)c2cccnc12 class_label=inactive
compound="O=C(CC1Sc2ccccc2NC1=O)NNc1ccc(F)cc1 (centres undefined)" class_label=inactive
compound=CCS(=O)(=O)N1CCN(c2ccc(Nc3ncc(C(N)=O)c(NC4CC4)n3)cc2)CC1 class_label=inactive
compound=CC(=N\O)/C(C)=N/O.CC(=N\O)/C(C)=N/O.[Fe].[NH2-].c1c[nH]cn1 class_label=inactive

Query: Which result was noted for this compound in the test: CCOC(=O)c1cc2c(n1Cc1cc(OC)cc(OC)c1)-c1oncc1CC2
Response: active

Query: What classification did CC(=O)/C=C/c1ccc(N(CCO)Cc2ccc(C(C)(C)C)cc2)cc1 end up with in this test?
Response: inactive

Query: Write down the call the test reported for this compound. Item: NCCCNc1nc2ccccc2c2c(=O)c3cc(F)cc(Cl)c3sc12
Response: inactive

Query: State the result this test recorded for CCOC(=O)c1cc(C(=O)c2cc(OC)c(OC)c(OC)c2)n2ccc(-c3cc[n+](CC(=O)c4cc(OC)c(OC)c(OC)c4)cc3)cc12 .
Response: inactive

###

- System: NCI-H23 lung
- protocol description: NCI tumour cell line growth inhibition, 48 h
measured endpoint: TGI

Take a look at these entries with their results.
compound="COc1cc(NCCC2CCCCN2)c2ncccc2c1OC (stereo not given)" tested_system="NCI-H23 lung" measured_endpoint=TGI reading="31.3 µM"
compound="C=C1C(O)C2CC(C)(C)C(=O)C2=C(CC(C)C)C12CC2 (stereo not given)" tested_system="NCI-H23 lung" measured_endpoint=TGI reading="> 100 µM"
compound=CCCCNCCCCCNc1cc(OC)cc2cccnc12 tested_system="NCI-H23 lung" measured_endpoint=TGI reading="31.7 µM"
compound=COc1ccc2nc3ccccc3c(NCc3ccccc3)c2c1 tested_system="NCI-H23 lung" measured_endpoint=TGI reading="5.52 µM"
compound=CC[P+]1(c2ccccc2)CCCCC1 tested_system="NCI-H23 lung" measured_endpoint=TGI reading="> 100 µM"
compound=CCOC(=O)/C(=C\c1c(C)[nH]c2ccccc12)P(=O)(OCC)OCC tested_system="NCI-H23 lung" measured_endpoint=TGI reading="> 100 µM"
compound="O=C(O)CCC(NC(=O)c1ccc(CNc2nc3cc(C(F)(F)F)ccc3nc2C(=O)O)cc1)C(=O)O (stereo not given)" tested_system="NCI-H23 lung" measured_endpoint=TGI reading="> 100 µM"
compound=COc1cccc(-c2nn(-c3ccccc3)cc2-c2ccnc(NCCCNS(=O)(=O)c3ccc(C(F)(F)F)cc3)c2)c1 tested_system="NCI-H23 lung" measured_endpoint=TGI reading="> 100 µM"
compound="CC[Si](CC)(CC)OC1[C@@H](O[Si](CC)(CC)CC)[C@@H](CNC(=O)NC)O[C@H]1n1cnc2c(NC(=O)Nc3ccccc3)ncnc21 (stereo not given in full)" tested_system="NCI-H23 lung" measured_endpoint=TGI reading="> 100 µM"

Now for another entry.
TGI recorded for this compound, CC(=O)c1ccc(Oc2c3ccccc3nc3occc23)cc1 , is > 100 µM

###

- Tested on: MALME-3M melanoma
- protocol description: NCI tumour cell line growth inhibition, 48 h
measured endpoint: TGI

compound=CCOC(=O)c1ccc(N(CCOS(=O)(=O)c2ccc(C)cc2)CCOS(=O)(=O)c2ccc(C)cc2)cc1 measured_endpoint=TGI reading="> 100 µM"
compound="CCCCCCCCCCCCCCCCCCOCC(O)CO (stereo not given)" measured_endpoint=TGI reading="> 21.1 µM"
compound="CC[Si](CC)(CC)OC1[C@@H](O[Si](CC)(CC)CC)[C@@H](CNC(=O)NC)O[C@H]1n1cnc2c(NC(=O)Nc3ccccc3)ncnc21 (stereo not given in full)" measured_endpoint=TGI reading="6.67 µM"

Working through the 2 compounds below one at a time, give TGI for each.
1. CCc1cccc(NC(=O)c2cc(/C=C/c3ccccc3)[nH]c(=S)n2)c1
2. CCOC(OC1=C(C#N)CCCC1)C(CC)[Se]c1ccccc1[N+](=O)[O-] (stereo not given)

Response:
["> 100 µM", "> 100 µM"]

###

- Test system: NCI-H460 lung
Kindly supply the reported GI50 values for the records listed here.

molecule="Clc1ccc(N2N=C(c3cccc(Nc4ccncc4)c3)CC2c2ccc(Br)cc2)cc1 (stereo not given)" tested_system="NCI-H460 lung" measured_endpoint=GI50 reading="1850 nM"

// input: 2 molecules below; output: GI50 for each
1. CCOC(=O)c1cc2c(n1Cc1ccccc1OC)-c1oncc1CCC2
2. CCCCC[C@H]1C/C=C2/C(=O)C(Cl)=C[C@@H]2C/C=C\CCCC(=O)O1

Response:
3890 nM
629 nM

List GI50 for every entry below, keeping the order given.
1. Cc1cn2c(/C=C3\C(=O)N(C)c4ccc(Cl)cc43)c(C)nc2s1
2. CC1(C)CN(CCNc2nccc(-c3c(-c4cccc(O)c4)nc4sccn34)n2)S(=O)(=O)N1
3. CC1(C)CC[C@]2(CO)CC[C@]3(C)C(=CC[C@@H]4[C@@]5(C)CCNCC(C)(C)[C@@H]5CC[C@]43C)[C@@H]2C1
4. COc1cccc(-c2nn(-c3ccccc3)cc2-c2ccnc(NCCCNS(=O)(=O)c3ccc(C(F)(F)F)cc3)c2)c1
5. Cn1cc(-c2nc(-c3cn(C)c4ncccc34)cs2)c2ccccc21
6. CN(C)C/C=C/C(=O)Nc1cc2c(Nc3cccc(Cl)c3F)ncnc2cc1OCCOC(F)F
7. O=c1[nH]c2ccccc2n1C1CCN(CCOc2ccccc2)CC1

Response:
2860 nM
7070 nM
2080 nM
6000 nM
858 nM
2820 nM
18700 nM
